- Test system: mouse TTR gene
- protocol.notes: In vivo editing in mouse liver, sgRNA targeting TTR (G282 or G502), % indel by NGS
- Set-up: species or system CD-1 female mice
- run.parameters: LNP i.v. 0.1 mg/kg, guide G502, Experiment 105

{"compound": "CCCCC/C=C\\C/C=C\\CCCCCCCC(=O)OCC(COC(=O)CCC(OCCCCCCCC)OCCCCCCCC)COC(=O)OCCC1CCCN1C (centres unmarked)", "experimental.target": "mouse TTR gene", "Editing Mean % Indel": "40.54%"}
{"compound": "CCCCCCCCOC(CCC(=O)OCC(COC(=O)CCCCCCCCCCC(=O)OCCCCCCC)COC(=O)OCCCN(CC)CC)OCCCCCCCC (centres unmarked)", "experimental.target": "mouse TTR gene", "Editing Mean % Indel": "36.06%"}
{"compound": "CCCCCCCCCC(C)OC(=O)CCCCCCCC(=O)OCC(COC(=O)CCC(OCCCCCCCC)OCCCCCCCC)COC(=O)OCCCN(CC)CC (centres unmarked)", "experimental.target": "mouse TTR gene", "Editing Mean % Indel": "43.52%"}
{"compound": "CCCCCCCCCCOC(=O)CCCCCCCC(=O)OCC(COC(=O)CCC(OCCCCCCCC)OCCCCCCCC)COC(=O)OCCCN(CC)CC (centres unmarked)", "experimental.target": "mouse TTR gene", "Editing Mean % Indel": "35.64%"}
{"compound": "CCCCC/C=C\\C/C=C\\CCCCCCCC(=O)OCC(COC(=O)CCC(OCCCCCCCC)OCCCCCCCC)COC(=O)OCCCN(CC)CC (centres unmarked) [Compound 1, reference compound]", "experimental.target": "mouse TTR gene", "Editing Mean % Indel": "47.62%"}
